# system: Dual specificity mitogen-activated protein kinase kinase 1 (Homo sapiens) (UniProt Q02750);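 note: values reported are mean inhibition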
# Sequence (Q02750 whole entry): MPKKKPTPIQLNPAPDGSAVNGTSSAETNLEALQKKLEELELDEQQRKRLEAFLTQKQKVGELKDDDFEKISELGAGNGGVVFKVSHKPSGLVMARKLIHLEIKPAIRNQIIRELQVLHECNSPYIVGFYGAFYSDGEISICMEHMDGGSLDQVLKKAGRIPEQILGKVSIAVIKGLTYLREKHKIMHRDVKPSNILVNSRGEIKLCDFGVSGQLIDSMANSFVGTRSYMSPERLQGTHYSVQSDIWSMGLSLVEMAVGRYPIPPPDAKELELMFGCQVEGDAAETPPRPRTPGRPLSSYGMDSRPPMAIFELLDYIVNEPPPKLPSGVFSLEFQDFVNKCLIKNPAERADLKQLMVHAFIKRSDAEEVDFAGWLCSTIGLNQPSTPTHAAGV
# run parameters: at 1 µM

| smiles repr | system | inhibition (%) |
| --- | --- | --- |
| COC(=O)c1sc(-n2cnc3cc(OC)c(OC)cc32)cc1OCc1ccccc1C(F)(F)F | Dual specificity mitogen-activated protein kinase kinase 1 (Homo sapiens) (UniProt Q02750) | 4.96 |
| COc1ccc2c(-c3ccnc(Nc4cccc(OC(F)(F)F)c4)n3)cnn2n1 | Dual specificity mitogen-activated protein kinase kinase 1 (Homo sapiens) (UniProt Q02750) | 6.2 |
| CCNC(=O)O[C@H]1CN[C@H](C#Cc2cc3ncnc(Nc4ccc(OCc5cccc(F)c5)c(Cl)c4)c3s2)C1 | Dual specificity mitogen-activated protein kinase kinase 1 (Homo sapiens) (UniProt Q02750) | 1.8 |
| Fc1ccc(-c2nn3ccccc3c2-c2ccncc2)cc1 | Dual specificity mitogen-activated protein kinase kinase 1 (Homo sapiens) (UniProt Q02750) | 2.3 |
| CS(=O)(=O)CCNCc1coc(-c2ccc3ncnc(Nc4ccc(OCc5ccccc5)cc4)c3c2)c1 | Dual specificity mitogen-activated protein kinase kinase 1 (Homo sapiens) (UniProt Q02750) | 3.36 |
| [O-][S+]1CCN(Cc2ccc(-c3ccc4ncnc(Nc5ccc(OCc6cccc(F)c6)c(Cl)c5)c4c3)o2)CC1 | Dual specificity mitogen-activated protein kinase kinase 1 (Homo sapiens) (UniProt Q02750) | 4.93 |
| COc1cccc(-c2c[nH]c3c(N/N=C/c4ccncc4)ncnc23)c1 | Dual specificity mitogen-activated protein kinase kinase 1 (Homo sapiens) (UniProt Q02750) | 6.21 |
| CCOc1ccc2c(-c3ccnc(Nc4cccc(C(F)(F)F)c4)n3)cnn2n1 | Dual specificity mitogen-activated protein kinase kinase 1 (Homo sapiens) (UniProt Q02750) | 0.44 |
| COc1cc(N2CCN(C(C)C)CC2)ccc1Nc1nc(Nc2ccc(F)cc2C(N)=O)c2cc[nH]c2n1 | Dual specificity mitogen-activated protein kinase kinase 1 (Homo sapiens) (UniProt Q02750) | 15.6 |
| CCn1c(-c2nonc2N)nc2ccccc21 | Dual specificity mitogen-activated protein kinase kinase 1 (Homo sapiens) (UniProt Q02750) | 4.74 |
| CC(C)COC(=O)c1ccc2c(c1)/C(=C/Nc1ccc(S(N)(=O)=O)cc1)C(=O)N2 | Dual specificity mitogen-activated protein kinase kinase 1 (Homo sapiens) (UniProt Q02750) | 33.7 |
| CN1CCC(n2cnc(-c3ccc(F)cc3)c2-c2ccnc(N)n2)CC1 | Dual specificity mitogen-activated protein kinase kinase 1 (Homo sapiens) (UniProt Q02750) | 3.41 |
| COc1ccc(-c2cc3c(N)ncnc3o2)cc1 | Dual specificity mitogen-activated protein kinase kinase 1 (Homo sapiens) (UniProt Q02750) | 1.35 |
| NC(=O)c1sc(-n2cnc3ccc(C(F)(F)F)cc32)cc1OCc1ccccc1Br | Dual specificity mitogen-activated protein kinase kinase 1 (Homo sapiens) (UniProt Q02750) | 5.45 |
| COc1ccc(-c2oc3ncnc(N)c3c2-c2ccc(NC(=O)Nc3cc(C(F)(F)F)ccc3F)cc2)cc1 | Dual specificity mitogen-activated protein kinase kinase 1 (Homo sapiens) (UniProt Q02750) | 7.26 |
| CNC(=O)c1cccc(C#Cc2cncnc2Nc2ccc(OCc3cccc(F)c3)c(Cl)c2)c1 | Dual specificity mitogen-activated protein kinase kinase 1 (Homo sapiens) (UniProt Q02750) | 1.05 |
| COc1ccc(-c2cc(-c3c[nH]nc3-c3ccccn3)ccn2)cc1 | Dual specificity mitogen-activated protein kinase kinase 1 (Homo sapiens) (UniProt Q02750) | 4.25 |
| CCn1c(-c2nonc2N)nc2cnc(Oc3cccc(NC(=O)c4ccc(N(C)C)cc4)c3)cc21 | Dual specificity mitogen-activated protein kinase kinase 1 (Homo sapiens) (UniProt Q02750) | 2.61 |
| CCCN1CCC(c2ccc(Nc3nc(Nc4cc(F)ccc4C(N)=O)c4cc[nH]c4n3)c(OC)c2)CC1 | Dual specificity mitogen-activated protein kinase kinase 1 (Homo sapiens) (UniProt Q02750) | 37.7 |
| COc1cccc(-n2ncc3c(N/N=C/c4ccc(F)cc4)ncnc32)c1 | Dual specificity mitogen-activated protein kinase kinase 1 (Homo sapiens) (UniProt Q02750) | 3.13 |
| Fc1ccc(-c2nn3ncccc3c2-c2ccnc(Nc3ccc4c(c3)OCCO4)n2)cc1 | Dual specificity mitogen-activated protein kinase kinase 1 (Homo sapiens) (UniProt Q02750) | 11.7 |
| O=C(Nc1n[nH]c2cc(-c3ccc(F)cc3)ccc12)C1CC1 | Dual specificity mitogen-activated protein kinase kinase 1 (Homo sapiens) (UniProt Q02750) | 3.42 |
| COc1cc2ncn(-c3cc(OCc4ccccc4C(F)(F)F)c(C(=O)N(C)C)s3)c2cc1OC | Dual specificity mitogen-activated protein kinase kinase 1 (Homo sapiens) (UniProt Q02750) | 1.58 |
| NS(=O)(=O)c1ccc(N/N=C2\C(=O)Nc3ccc4ncccc4c32)cc1 | Dual specificity mitogen-activated protein kinase kinase 1 (Homo sapiens) (UniProt Q02750) | 61.1 |
| CN1CCC(n2cnc(-c3ccc(F)cc3)c2-c2ccnc(Nc3ccccc3)n2)CC1 | Dual specificity mitogen-activated protein kinase kinase 1 (Homo sapiens) (UniProt Q02750) | 4.26 |

The origin of these recorded values is ChEMBL document CHEMBL1961873.
